Origin of the recorded values: paper PMC9959269

# SUBJECT OF TEST: hCA XII (Homo sapiens)
# Sequence (O43570 25-354): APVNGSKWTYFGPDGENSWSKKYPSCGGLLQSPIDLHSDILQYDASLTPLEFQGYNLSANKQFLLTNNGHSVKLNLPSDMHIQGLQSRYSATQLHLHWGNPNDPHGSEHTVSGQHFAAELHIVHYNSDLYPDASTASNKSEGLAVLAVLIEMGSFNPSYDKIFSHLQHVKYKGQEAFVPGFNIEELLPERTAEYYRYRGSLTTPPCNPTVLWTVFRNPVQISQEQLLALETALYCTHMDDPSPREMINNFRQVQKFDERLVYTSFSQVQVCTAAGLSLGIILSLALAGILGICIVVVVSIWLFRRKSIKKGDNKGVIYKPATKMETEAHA
# EXPERIMENT SUMMARY: Stopped flow CO2 hydrase assay, hCA XII inhibition
# EXPERIMENTAL PARAMETERS: stopped flow technique; means ± SEM of 3 different assays; recombinant hCA XII; read-out: Ki CA XII
OBSERVED PROPERTY: pKi
Just so you know, pKi here is -log10 of the concentration in molar units; reply with that number alone.

// solved cases for pKi follow
SMILES TEXT	pKi
O=C(O)/C(O)=C/C(=O)c1ccn(Cc2ccc(F)cc2)c1	5.10
CCOC(=O)/C(O)=C/C(=O)c1ccn(Cc2ccc(F)cc2)c1	4.15

Read the next record carefully.
Query: I would be grateful if you could share the reported pKi for O=C(/C=C(\O)C(=O)O)/C=C/c1cccn1Cc1ccc(F)cc1 .
Response: 6.00

###

# SUBJECT OF TEST: hCA II (Homo sapiens)
# EXPERIMENT SUMMARY: Stopped flow CO2 hydrase assay, hCA II inhibition
# EXPERIMENTAL PARAMETERS: stopped flow technique; means ± SEM of 3 different assays; recombinant hCA II; read-out: Ki CA II
# reported pKi; entries follow
Value format note: pKi is -log10 of concentration (mol/L); just state the number.

Some solved cases for reference:
SMILES TEXT	pKi
O=C(O)/C(O)=C/C(=O)c1cn(Cc2ccc(F)cc2)cc1-c1ccccc1	4.11
COc1ccc(Cn2cc(/C=C/C(=O)/C=C(\O)C(=O)O)c3ccccc32)cc1	4.44
Cc1ccc(Cn2cccc2/C=C/C(=O)/C=C(\O)C(=O)O)cc1	4.35

Query: Which value of pKi has been reported for O=C(/C=C(\O)C(=O)O)/C=C/c1cccn1Cc1ccccc1F in the records?
Response: 4.85

Query: Quick check: pKi of O=C(/C=C(\O)C(=O)O)/C=C/c1cccn1Cc1ccc(F)cc1 ?
Response: 4.84

Query: # pKi lookup, item O=C(O)/C(O)=C/C(=O)c1ccn(Cc2ccc(F)cc2)c1
Response: 4.26

Query: Give its pKi value. Item: O=C(/C=C(\O)C(=O)O)/C=C/c1cn(Cc2ccc(F)cc2)cc1-c1ccccc1
Response: 4.20

Query: I would be grateful if you could share the reported pKi for O=C(/C=C(\O)C(=O)O)/C=C/c1cc(C(=O)c2ccccc2)c[nH]1 .
Response: 4.41

###

Entries and their pKi values follow.
# SUBJECT OF TEST: hCA IX (Homo sapiens)
# Construct: made in house
# EXPERIMENT SUMMARY: Stopped flow CO2 hydrase assay, hCA IX inhibition
# Assay type: biochemical
# EXPERIMENTAL PARAMETERS: stopped flow technique; means ± SEM of 3 different assays; recombinant hCA IX; read-out: Ki CA IX
When answering, recall that pKi equals minus log10 of the concentration in mol/L, and write that number alone.

Query: Please report the recorded pKi for CCOC(=O)/C(O)=C/C(=O)/C=C/c1cccn1Cc1ccc(C)cc1 .
Response: 4.04

Query: Quick one: pKi of O=C(O)/C(O)=C/C(=O)c1cn(Cc2ccc(F)cc2)cc1-c1ccccc1 ?
Response: 5.85

Query: What measured pKi goes with O=C(/C=C(\O)C(=O)O)/C=C/c1cc(C(=O)c2ccccc2)c[nH]1 ?
Response: 5.85

Query: I have this compound here, O=C(/C=C(\O)C(=O)O)/C=C/c1cccn1Cc1ccccc1F , and I need its recorded pKi.
Response: 5.60
